- System: DU-4475
- method: normalised response (% of control), CellTiter-Glo; higher = more viable cells (100 = DMSO, 0 = benzethonium chloride kill control)
- details: incubation time: 72 h
Reported normalised response values follow for various molecules

{"molecule": "O=C(Nc1ccncc1)C(=O)c1cn(Cc2ccc(Cl)cc2)c2ccccc12 [Indibulin] (10 nM)", "study.target": "DU-4475", "quantity.unit": "%", "normalised response": 105}
{"molecule": "Cc1[nH]c2ccccc2c1CCNCc1ccc(/C=C/C(=O)NO)cc1 [Panobinostat] (0.1 nM)", "study.target": "DU-4475", "quantity.unit": "%", "normalised response": 99.7}
{"molecule": "CO[C@H]1C[C@@H]2CC[C@@H](C)[C@@](O)(O2)C(=O)C(=O)N2CCCC[C@H]2C(=O)O[C@H]([C@H](C)C[C@@H]2CC[C@@H](OP(C)(C)=O)[C@H](OC)C2)CC(=O)[C@H](C)/C=C(\\C)[C@@H](O)[C@@H](OC)C(=O)[C@H](C)C[C@H](C)/C=C/C=C/C=C/1C [Ridaforolimus] (10 nM)", "study.target": "DU-4475", "quantity.unit": "%", "normalised response": 77}
{"molecule": "Cc1ccc(NC(=O)c2ccc(CN3CCN(C)CC3)cc2)cc1Nc1nc(-c2cccnc2)cs1 [Masitinib] (1000 nM)", "study.target": "DU-4475", "quantity.unit": "%", "normalised response": 103}
{"molecule": "Cc1ccc(NC(=O)c2ccc(CN3CCN(C)CC3)cc2)cc1Nc1nc(-c2cccnc2)cs1 [Masitinib] (10 nM)", "study.target": "DU-4475", "quantity.unit": "%", "normalised response": 102}
{"molecule": "CN(C)c1nc(N(C)C)nc(N(C)C)n1 [Altretamine] (10 nM)", "study.target": "DU-4475", "quantity.unit": "%", "normalised response": 100}
{"molecule": "COc1cc(O)c2c(c1)/C=C/C[C@H](O)[C@H](O)C(=O)/C=C\\C[C@H](C)OC2=O [(5Z)-7-Oxozeaenol] (10 nM)", "study.target": "DU-4475", "quantity.unit": "%", "normalised response": 102}
{"molecule": "CCOC(=O)CCNc1cc(N2CCc3ccccc3CC2)nc(-c2ccccn2)n1 [GSK-J4] (10000 nM)", "study.target": "DU-4475", "quantity.unit": "%", "normalised response": 30.6}
{"molecule": "NC(=O)c1ccc(I)c([N+](=O)[O-])c1 [Iniparib] (10 nM)", "study.target": "DU-4475", "quantity.unit": "%", "normalised response": 93.5}
{"molecule": "CCc1c2c(nc3ccc(OC(=O)N4CCC(N5CCCCC5)CC4)cc13)-c1cc3c(c(=O)n1C2)COC(=O)[C@]3(O)CC [Irinotecan] (10 nM)", "study.target": "DU-4475", "quantity.unit": "%", "normalised response": 106}
{"molecule": "c1ccc2c(CCNc3ccc(Nc4ccncc4)cc3)c[nH]c2c1 [Serdemetan] (1000 nM)", "study.target": "DU-4475", "quantity.unit": "%", "normalised response": 90.3}

From: the supplement of paper PMC4862054
